details: intravenous administration, 10 mg/kg, SD rats
Vss values for the compounds below.
Note: unit L/kg is implicit; provide only the numeric part.

1. CN1CC[C@]23c4c5ccc(O)c4O[C@H]2[C@@H](OCCOCCOCCOCCOCCOCCOCCOCCOCCO[C@H]2C=C[C@H]4[C@H]6Cc7ccc(O)c8c7[C@@]4(CCN6C)[C@H]2O8)C=C[C@H]3[C@H]1C5
60.1
2. CN1CC[C@]23c4c5ccc(O)c4O[C@H]2[C@@H](OCCOCCOCCO[C@H]2C=C[C@H]4[C@H]6Cc7ccc(O)c8c7[C@@]4(CCN6C)[C@H]2O8)C=C[C@H]3[C@H]1C5
27.8
3. CN1CC[C@]23c4c5ccc(O)c4O[C@H]2[C@@H](OCCOCCOCCOCCO[C@H]2C=C[C@H]4[C@H]6Cc7ccc(O)c8c7[C@@]4(CCN6C)[C@H]2O8)C=C[C@H]3[C@H]1C5
64.3
4. CN1CC[C@]23c4c5ccc(O)c4O[C@H]2[C@@H](OCCOCCO[C@H]2C=C[C@H]4[C@H]6Cc7ccc(O)c8c7[C@@]4(CCN6C)[C@H]2O8)C=C[C@H]3[C@H]1C5
37.2

Turning now to a further record.
q: Consider the compound shown here: CN1CC[C@]23c4c5ccc(O)c4O[C@H]2[C@@H](OCCO[C@H]2C=C[C@H]4[C@H]6Cc7ccc(O)c8c7[C@@]4(CCN6C)[C@H]2O8)C=C[C@H]3[C@H]1C5 What is its recorded Vss?
a: 47.3

###

assay: in vivo; details: female, SD, rat, iv, 5 mg/kg
Observable: tissue level at time at 1 h (ng/g)
Numbers only; they are read as ng/g.

Worked set:
1. CN1CC[C@]23c4c5ccc(O)c4O[C@H]2[C@@H](OCCOCCOCCOCCO[C@H]2C=C[C@H]4[C@H]6Cc7ccc(O)c8c7[C@@]4(CCN6C)[C@H]2O8)C=C[C@H]3[C@H]1C5
198
2. CN1CC[C@]23c4c5ccc(O)c4O[C@H]2[C@@H](OCCOCCOCCOCCOCCOCCOCCOCCO[C@H]2C=C[C@H]4[C@H]6Cc7ccc(O)c8c7[C@@]4(CCN6C)[C@H]2O8)C=C[C@H]3[C@H]1C5
153
3. CN1CC[C@]23c4c5ccc(O)c4O[C@H]2[C@@H](OCCOCCOCCO[C@H]2C=C[C@H]4[C@H]6Cc7ccc(O)c8c7[C@@]4(CCN6C)[C@H]2O8)C=C[C@H]3[C@H]1C5
262

For the next question, use this compound.
q: For CN1CC[C@]23c4c5ccc(O)c4O[C@H]2[C@@H](OCCOCCO[C@H]2C=C[C@H]4[C@H]6Cc7ccc(O)c8c7[C@@]4(CCN6C)[C@H]2O8)C=C[C@H]3[C@H]1C5 , what is its reported tissue level at time at 1 h?
a: 342

###

conditions: intravenous administration, 10 mg/kg, SD rats
Observable: MRTINF (h)
Write the answer as a number in h, unit excluded.

1. CN1CC[C@]23c4c5ccc(O)c4O[C@H]2[C@@H](OCCOCCOCCOCCOCCOCCOCCOCCO[C@H]2C=C[C@H]4[C@H]6Cc7ccc(O)c8c7[C@@]4(CCN6C)[C@H]2O8)C=C[C@H]3[C@H]1C5 [α-6-O-PEG8-(morphine)2]
10.8

q: Entry CN1CC[C@]23c4c5ccc(O)c4O[C@H]2[C@@H](OCCOCCOCCO[C@H]2C=C[C@H]4[C@H]6Cc7ccc(O)c8c7[C@@]4(CCN6C)[C@H]2O8)C=C[C@H]3[C@H]1C5 [α-6-O-PEG3-(morphine)2] : reported MRTINF = ?
a: 2.18

Each recorded value in this set is attributed to patent EP3409295A1.
